Biological target: G1 APOL1 (Homo sapiens, UniProt O14791, I384M/S342G)
Construct: expressed in transfected cells
Sequence (O14791 28-398 S342G/I384M): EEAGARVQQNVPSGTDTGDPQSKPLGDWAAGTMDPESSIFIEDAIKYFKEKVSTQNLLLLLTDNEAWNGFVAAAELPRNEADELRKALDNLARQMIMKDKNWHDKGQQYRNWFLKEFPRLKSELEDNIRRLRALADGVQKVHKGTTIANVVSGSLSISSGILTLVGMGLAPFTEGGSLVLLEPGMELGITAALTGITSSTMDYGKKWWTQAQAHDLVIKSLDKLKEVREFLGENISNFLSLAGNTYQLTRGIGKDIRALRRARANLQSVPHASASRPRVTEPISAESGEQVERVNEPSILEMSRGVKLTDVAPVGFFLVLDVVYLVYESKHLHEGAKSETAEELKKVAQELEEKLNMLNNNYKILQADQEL
Experiment: Acute APOL1 Thallium Assay with inducible stable clones of HEK 293 cells
Type: cell-based
Details: Table 24, Compounds 287 to 465; read-out: Thallium Assay (IC50)
pIC50: −log10 of the molar value.
readoutLabel: pIC50

molecule="CC1(NC(=O)C2CC(Cc3c(-c4ccc(F)cc4)[nH]c4c(F)cc(F)cc34)C2)CCNC1=O (stereo not shown)" testsystem="G1 APOL1 (Homo sapiens, UniProt O14791, I384M/S342G)" readoutvalue="< 6.00"

For each of the molecules below, state pIC50.
1. CC(C)(C)[C@H](CO)NC(=O)NC[C@H]1C[C@H](c2c(-c3ccc(F)cc3)[nH]c3c(F)cc(F)cc32)C1
2. C[C@@H](CO)NC(=O)O[C@H]1C[C@H](c2c(-c3ccc(F)cc3)[nH]c3c(F)cc(F)cc32)C1
3. CC(C)[C@@H](CO)NC(=O)O[C@H]1C[C@H](c2c(-c3ccc(F)cc3)[nH]c3c(F)cc(F)cc32)C1

## Result
< 6.00
6.00 to 6.60
< 6.00

----------
Biological target: G1 APOL1 (Homo sapiens, UniProt O14791, I384M/S342G)
Construct: expressed in transfected cells
Test: Acute APOL1 Thallium Assay with inducible stable clones of HEK 293 cells
Format: cell-based
Details: HEK 293 T-Rex cells expressing G1 APOL1; read-out: Thallium Assay (IC50)
Task for the reader: assign each of the following compounds its reported IC50.

Worked cases, answers included:
compound=O=C([C@H]1C[C@H](c2c(-c3ccc(F)cc3)[nH]c3c(F)cc(F)cc32)C1)N(CCO)c1cnccn1 readoutlabel=IC50 readoutvalue="> 1000 nM"
compound=NC(=O)[C@@H]1CCCN1C(=O)[C@H]1C[C@H](c2c(-c3ccc(F)cc3)[nH]c3c(F)cc(F)cc32)C1 readoutlabel=IC50 readoutvalue="> 1000 nM"
compound=CC(C)(NC(=O)[C@H]1C[C@H](c2c(-c3ccc(F)cc3)[nH]c3c(F)cc(F)cc32)C1)C(=O)N1CCOCC1 readoutlabel=IC50 readoutvalue="> 1000 nM"
compound="CC(O)[C@H](CO)NC(=O)[C@H]1C[C@@H](c2c(-c3ccc(F)cc3)[nH]c3c(F)cc(F)cc32)C1 (stereo partly drawn)" readoutlabel=IC50 readoutvalue="> 1000 nM"
compound=O=C(NCCOCCO)[C@H]1C[C@H](c2c(-c3ccc(F)cc3)[nH]c3c(F)cc(F)cc32)C1 readoutlabel=IC50 readoutvalue="< 250 nM"
compound=O=C([C@H]1C[C@H](c2c(-c3ccc(F)cc3)[nH]c3c(F)cc(F)cc32)C1)N1CCC[C@@H]1CO readoutlabel=IC50 readoutvalue="> 1000 nM"
compound=O=C(N[C@H](CO)C(F)(F)F)[C@H]1C[C@H](c2c(-c3ccc(F)cc3)[nH]c3c(F)cc(F)cc32)C1 readoutlabel=IC50 readoutvalue="250 to 1000 nM"
compound=O=C([C@H]1C[C@H](c2c(-c3ccc(F)cc3)[nH]c3c(F)cc(F)cc32)C1)N1CCC(O)(CO)CC1 readoutlabel=IC50 readoutvalue="> 1000 nM"

Okay, next one:
## Task Which value of IC50 has been reported for `O=C(NC[C@@H](O)C(F)(F)F)[C@H]1C[C@H](c2c(-c3ccc(F)cc3)[nH]c3c(F)cc(F)cc32)C1` in the records?
## Result 250 to 1000 nM
